Parameter: pIC50. Scope: all listed entries.
system-tested: recombinant human kappa (KOR) opioid receptor (Homo sapiens (Human))
assay-info: biochemical
Assay type: binding
stated-conditions: [3H]Diprenorphine 1 nM, CHO-K1 membranes; read-out: Kappa receptor binding IC50
pIC50: −log10 of the molar value.
attribute-measured: pIC50

>>> readout_number("COCCOCCOCCOCCOCCOCCOCCNc1ccc2c(c1)[C@]1(C)CCN(CC3CC3)[C@H](C2=O)[C@@H]1C [Compound 3]")
5.48
>>> readout_number("C[C@H]1[C@H]2C(=O)c3ccc(O)cc3[C@]1(C)CCN2CC1CC1 [Ketazocine, reference compound]")
8.25

###

system-tested: MOR (Homo sapiens (Human), UniProt P35372)
assay-info: cAMP accumulation assay, forskolin-stimulated CHO-K1 cells stably expressing MOR
Type: cell-based
stated-conditions: inhibition of cAMP accumulation
attribute-measured: EC50 (nM)

>>> readout_number("C[C@H]1[C@H]2C(=O)c3ccc(NC(CO)CO)cc3[C@]1(C)CCN2CC1CC1")
598
>>> readout_number("COCCOCCOCCOCCOCCNc1ccc(Nc2ccc3c(c2)[C@]2(C)CCN(CC4CC4)[C@H](C3=O)[C@@H]2C)cc1")
189
>>> readout_number("C[C@H]1[C@H]2C(=O)c3ccc(Nc4ccc(NCCOCCOCCOCCOCCOC(F)(F)F)cc4)cc3[C@]1(C)CCN2CC1CC1")
128
>>> readout_number("C[C@H]1[C@H]2C(=O)c3ccc(NC(C)(C)CO)cc3[C@]1(C)CCN2CC1CC1")
3290

###

system-tested: recombinant human kappa (KOR) opioid receptor (Homo sapiens (Human), UniProt P41145)
assay-info: biochemical
Format: binding
pKi: −log10 of the molar value.
attribute-measured: pKi

>>> readout_number("COCCOCCOCCOCCOCCO[C@@H]1c2ccc(O)cc2[C@]2(C)CCN(CC3CC3)[C@H]1[C@@H]2C")
6.02
>>> readout_number("COCCOCCOCCOCCOCCNc1ccc2c(c1)[C@]1(C)CCN(CC3CC3)[C@H](C2=O)[C@@H]1C")
6.26
>>> readout_number("COCCOCCOCCOCCOCCOCCOCCOc1ccc2c(c1)[C@]1(C)CCN(CC3CC3)[C@H](C2=O)[C@@H]1C")
5.85
>>> readout_number("COCCOCCOCCOc1ccc2c(c1)[C@]1(C)CCN(CC3CC3)[C@H](C2=O)[C@@H]1C")
6.69

###

# maps each entry to its EC50
system-tested: KOR (Homo sapiens (Human))
assay-info: cAMP accumulation assay, forskolin-stimulated CHO-K1 cells stably expressing KOR
Type: cell-based
attribute-measured: EC50 (nM)

>>> readout_number("COCCOCCOCCOCCOCCOCCOCCOc1ccc2c(c1)[C@]1(C)CCN(CC3CC3)[C@H](C2=O)[C@@H]1C [Compound 6]")
357
>>> readout_number("C[C@H]1[C@H]2C(=O)c3ccc(O)cc3[C@]1(C)CCN2CC1CC1 [Ketazocine, reference compound]")
0.55
>>> readout_number("COCCOCCOCCOc1ccc2c(c1)[C@]1(C)CCN(CC3CC3)[C@H](C2=O)[C@@H]1C [Compound 4]")
9.35

###

system-tested: recombinant human kappa (KOR) opioid receptor (Homo sapiens (Human), UniProt P41145)
assay-info: biochemical
Type: binding
attribute-measured: IC50 (µM)

>>> readout_number("COCCOCCOCCOCCOCCOCCOCCOc1ccc2c(c1)[C@]1(C)CCN(CC3CC3)[C@H](C2=O)[C@@H]1C")
6.08
>>> readout_number("COCCOCCOCCOc1ccc2c(c1)[C@]1(C)CCN(CC3CC3)[C@H](C2=O)[C@@H]1C")
0.879
>>> readout_number("COCCOCCOCCOCCOCCNc1ccc2c(c1)[C@]1(C)CCN(CC3CC3)[C@H](C2=O)[C@@H]1C")
2.38

###

system-tested: recombinant human mu (MOR) opioid receptor (Homo sapiens (Human), UniProt P35372)
assay-info: Radioligand competition binding assay, mu opioid receptor
stated-conditions: [3H]Naloxone 4 nM, CHO-K1 membranes
attribute-measured: IC50 (nM)

>>> readout_number("C[C@H]1[C@H]2C(=O)c3ccc(O)cc3[C@]1(C)CCN2CC1CC1 [Ketazocine, reference compound]")
8.4

###

system-tested: recombinant human kappa (KOR) opioid receptor (Homo sapiens (Human))
assay-info: biochemical
Format: binding
stated-conditions: Cheng Prusoff correction; [3H]Diprenorphine 1 nM, CHO-K1 membranes; read-out: Kappa receptor binding Ki
pKi: −log10 of the molar value.
attribute-measured: pKi

>>> readout_number("COCCOCCOCCOCCOCCOCCOCCNc1ccc2c(c1)[C@]1(C)CCN(CC3CC3)[C@H](C2=O)[C@@H]1C")
6.11
>>> readout_number("C[C@H]1[C@H]2C(=O)c3ccc(O)cc3[C@]1(C)CCN2CC1CC1 [Ketazocine, reference compound]")
8.89
>>> readout_number("COCCOCCOCCOCCOCCNc1ccc(Nc2ccc3c(c2)[C@]2(C)CCN(CC4CC4)[C@H](C3=O)[C@@H]2C)cc1")
8.30
>>> readout_number("C[C@H]1[C@H]2C(=O)c3ccc(NC(CO)CO)cc3[C@]1(C)CCN2CC1CC1")
6.31
>>> readout_number("C[C@H]1[C@H]2C(=O)c3ccc(NC(C)(C)CO)cc3[C@]1(C)CCN2CC1CC1")
5.98
>>> readout_number("C[C@H]1[C@H]2C(=O)c3ccc(Nc4ccc(NCCOCCOCCOCCOCCOC(F)(F)F)cc4)cc3[C@]1(C)CCN2CC1CC1")
8.54

###

system-tested: recombinant human mu (MOR) opioid receptor (Homo sapiens (Human), UniProt P35372)
assay-info: Radioligand competition binding assay, mu opioid receptor
stated-conditions: [3H]Naloxone 4 nM, CHO-K1 membranes
pKi: −log10 of the molar value.
// reported pKi for each item listed
attribute-measured: pKi

>>> readout_number("C[C@H]1[C@H]2C(=O)c3ccc(Nc4ccc(NCCOCCOCCOCCOCCOC(F)(F)F)cc4)cc3[C@]1(C)CCN2CC1CC1")
7.35
>>> readout_number("COCCOCCOCCOCCOCCNc1ccc(Nc2ccc3c(c2)[C@]2(C)CCN(CC4CC4)[C@H](C3=O)[C@@H]2C)cc1")
7.23
>>> readout_number("C[C@H]1[C@H]2C(=O)c3ccc(NC(C)(C)CO)cc3[C@]1(C)CCN2CC1CC1")
5.10
>>> readout_number("C[C@H]1[C@H]2C(=O)c3ccc(NC(CO)CO)cc3[C@]1(C)CCN2CC1CC1")
5.74

###

The compounds listed here are annotated with their EC50.
system-tested: UniProt:P41145
assay-info: cAMP accumulation assay, forskolin-stimulated CHO-K1 cells stably expressing KOR
Type: cell-based
stated-conditions: inhibition of cAMP accumulation, forskolin 20 μM; read-out: EC50 cAMP (nM)-KOR
attribute-measured: EC50 (nM)

>>> readout_number("COCCOCCOCCOCCOCCOCCOCCNc1ccc2c(c1)[C@]1(C)CCN(CC3CC3)[C@H](C2=O)[C@@H]1C")
122
>>> readout_number("COCCOCCOCCOCCOCCNc1ccc2c(c1)[C@]1(C)CCN(CC3CC3)[C@H](C2=O)[C@@H]1C")
139
>>> readout_number("C[C@H]1[C@H]2C(=O)c3ccc(NC(CO)CO)cc3[C@]1(C)CCN2CC1CC1")
107

###

system-tested: UniProt P41145
assay-info: cAMP accumulation assay, forskolin-stimulated CHO-K1 cells stably expressing KOR
Assay type: cell-based
stated-conditions: inhibition of cAMP accumulation, forskolin 20 μM; read-out: EC50 cAMP (nM)-KOR
Examples of compounds with documented EC50 follow.
attribute-measured: EC50 (nM)

>>> readout_number("COCCOCCOCCOCCOCCO[C@@H]1c2ccc(O)cc2[C@]2(C)CCN(CC3CC3)[C@H]1[C@@H]2C [Compound 25]")
195
>>> readout_number("COCCOCCOCCOCCOCCNc1ccc(Nc2ccc3c(c2)[C@]2(C)CCN(CC4CC4)[C@H](C3=O)[C@@H]2C)cc1 [Compound 12]")
7
>>> readout_number("C[C@H]1[C@H]2C(=O)c3ccc(NC(C)(C)CO)cc3[C@]1(C)CCN2CC1CC1 [Compound 23]")
395
>>> readout_number("C[C@H]1[C@H]2C(=O)c3ccc(Nc4ccc(NCCOCCOCCOCCOCCOC(F)(F)F)cc4)cc3[C@]1(C)CCN2CC1CC1 [Compound 20]")
6.1
